Cited source for all entries: ChEMBL document CHEMBL1127572

Assay: Solubility (alpha-MEM culture medium, containing 5% fetal calf serum)
Type: physicochemical
Conditions: alpha-MEM culture medium with 5% fetal calf serum; read-out: S
property: solubility (µM)
Reply with just the number (in µM).

Would you please look over these solved cases?
[Q] Quick one: solubility for CNC(=O)c1cc(N(CCCl)CCCl)c([N+](=O)[O-])cc1[N+](=O)[O-] ?
[A] 200

[Q] Suppose we examine the compound CCN(CCCl)c1cc(C(N)=O)c([N+](=O)[O-])cc1[N+](=O)[O-] ; what solubility value has been reported?
[A] 160

[Q] // returns reported solubility for input O=C(c1cc(N(CCCl)CCCl)c([N+](=O)[O-])cc1[N+](=O)[O-])N1CCOCC1
[A] 30

--- query ---
[Q] Suppose we examine the compound NC(=O)c1cc(N(CCCl)CCCl)c([N+](=O)[O-])cc1[N+](=O)[O-] ; what solubility value has been reported?
[A] 190
